Ref: patent US20240238281A1

Molecular target: MC5R (Homo sapiens)
Construct: expressed in transfected cells
Sequence (P33032 whole entry): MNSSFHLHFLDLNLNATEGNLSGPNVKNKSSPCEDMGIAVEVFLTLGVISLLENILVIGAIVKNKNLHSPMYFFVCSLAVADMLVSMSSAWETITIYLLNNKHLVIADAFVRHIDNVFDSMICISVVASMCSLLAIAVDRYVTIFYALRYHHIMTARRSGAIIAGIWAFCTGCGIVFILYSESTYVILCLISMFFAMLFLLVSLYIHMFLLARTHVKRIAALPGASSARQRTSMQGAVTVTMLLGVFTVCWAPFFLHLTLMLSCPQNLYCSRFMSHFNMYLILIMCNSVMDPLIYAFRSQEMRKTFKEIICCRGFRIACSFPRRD
Assay: In vitro activity of MCR receptors, intracellular cAMP signal (HEK293T/MCR cell line), MC5R
Assay type: cell-based
Conditions: cAMP, HEK293T/MCR cell line; read-out: MC5R EC50
measured.attribute: EC50

(Q) Under MC5R (Homo sapiens): report EC50 of C[C@@H]1CN(C(=O)C2CN(C3CCOC(C)(C)C3)CC2c2ccc(F)cc2F)C[C@H](C)N1c1ccc(F)cc1 (single isomer, unassigned) [Compound 21b] .
(A) > 10 µM

(Q) Under MC5R (Homo sapiens): report EC50 of C[C@@H]1CN(C(=O)C2CN([C@H]3CCO[C@@H](C)C3)C[C@H]2c2ccc(F)cc2F)C[C@H](C)N1c1ccc(F)cc1 (stereo partly drawn) [Compound 22d] .
(A) > 10 µM

(Q) Under MC5R (Homo sapiens): report EC50 of C[C@@H]1CN(C(=O)C2CN(C3CCOC3)CC2c2ccc(F)cc2F)C[C@H](C)N1c1ccc(F)cc1 (single isomer, unassigned) [Compound 20a] .
(A) > 10 µM
